# condition description: 308.15 K; 60000 kPa; Liquid; Vibrating tube method
Quick reference: mass density of the listed items.
Give the value, in units of kg/m3, as a plain number.

Here's what some known entries look like.
CCCCCCCCO 848.2
CCCCO 837
CCCCCCCCCO 849.3

Task item: Fill in: mass density of CCCCCO is ___
Reply: 840.4

Task item: Fill in: mass density of CCCO is ___
Reply: 832.7

----------
# condition description: 318.15 K; 35000 kPa; Liquid; Vibrating tube method
Quick reference: mass density of the listed items.
Give the value, in units of kg/m3, as a plain number.

Here's what some known entries look like.
CCCCCCCCCO 831.3
CCCCCCCO 827.1
CCCCCCCCCCO 833.2
CCCCO 816.1

Task item: Fill in: mass density of CCO is ___
Reply: 797.8

Task item: Fill in: mass density of CCCCCO is ___
Reply: 820.4

Task item: Fill in: mass density of CCCCCCCCCCCO is ___
Reply: 834.8

Task item: Fill in: mass density of CCCCCCO is ___
Reply: 824

Task item: Fill in: mass density of CCCCCCCCO is ___
Reply: 829.6

Task item: Fill in: mass density of CCCO is ___
Reply: 810.9

----------
# condition description: 288.15 K; 45000 kPa; Liquid; Vibrating tube method
Quick reference: mass density of the listed items.
Give the value, in units of kg/m3, as a plain number.

Here's what some known entries look like.
CCCCCCCCO 852.9
CCCCCCCCCO 854
CCCO 837.6
CCCCCCCCCCO 855.9
CCCCO 841.7

Task item: Fill in: mass density of CCCCCCO is ___
Reply: 848

Task item: Fill in: mass density of CCCCCO is ___
Reply: 845

Task item: Fill in: mass density of CCO is ___
Reply: 826.3

Task item: Fill in: mass density of CCCCCCCO is ___
Reply: 850.7

----------
# condition description: 328.15 K; 25000 kPa; Liquid; Vibrating tube method
Quick reference: mass density of the listed items.
Give the value, in units of kg/m3, as a plain number.

Here's what some known entries look like.
CCCO 796.5
CCCCO 802.4
CCCCCO 807.2
CCCCCCO 811.2

Task item: Fill in: mass density of CCO is ___
Reply: 782.4

Task item: Fill in: mass density of CCCCCCCCCO is ___
Reply: 819.3

Task item: Fill in: mass density of CCCCCCCO is ___
Reply: 814.7

Task item: Fill in: mass density of CCCCCCCCCCO is ___
Reply: 821.4

Task item: Fill in: mass density of CCCCCCCCCCCO is ___
Reply: 823.3

Task item: Fill in: mass density of CCCCCCCCO is ___
Reply: 817.5

----------
Quick reference: mass density of the listed items.
# condition description: 348.15 K; 10000 kPa; Liquid; Vibrating tube method
Give the value, in units of kg/m3, as a plain number.

CCCO 767.7
CCCCO 775.3

Task item: Fill in: mass density of CCO is ___
Reply: 751.3

Task item: Fill in: mass density of CCCCCO is ___
Reply: 781.2

----------
# condition description: 318.15 K; 100 kPa; Liquid; Vibrating tube method
measure: mass density (kg/m3)
Give the value, in units of kg/m3, as a plain number.

Here's what some known entries look like.
CCCCCCCCCO 809.8
CCCO 783.4
CCO 767.4
CCCCO 790.3
CCCCCO 795.8

Task item: Fill in: mass density of CCCCCCCO is ___
Reply: 804.3

Task item: Fill in: mass density of CCCCCCO is ___
Reply: 800.5

Task item: Fill in: mass density of CCCCCCCCCCCO is ___
Reply: 814.1

Task item: Fill in: mass density of CCCCCCCCO is ___
Reply: 807.5

Task item: Fill in: mass density of CCCCCCCCCCO is ___
Reply: 811.9

----------
# condition description: 318.15 K; 40000 kPa; Liquid; Vibrating tube method
measure: mass density (kg/m3)
Give the value, in units of kg/m3, as a plain number.

CCO 801.4
CCCCCCCO 829.9
CCCCCO 823.4
CCCCCCO 826.9
CCCCO 819.3

Task item: Fill in: mass density of CCCCCCCCCO is ___
Reply: 834

Task item: Fill in: mass density of CCCCCCCCCCO is ___
Reply: 835.8

Task item: Fill in: mass density of CCCCCCCCCCCO is ___
Reply: 837.6

Task item: Fill in: mass density of CCCO is ___
Reply: 814.2

Task item: Fill in: mass density of CCCCCCCCO is ___
Reply: 832.4

----------
Quick reference: mass density of the listed items.
# condition description: 338.15 K; 5000 kPa; Liquid; Vibrating tube method
Give the value, in units of kg/m3, as a plain number.

CCCO 771.3
CCCCCCCCCCCO 803.9
CCCCCCCCCCO 801.7
CCCCCCCCCO 799.4
CCCCCCO 789.6

Task item: Fill in: mass density of CCO is ___
Reply: 754.8

Task item: Fill in: mass density of CCCCCO is ___
Reply: 784.8

Task item: Fill in: mass density of CCCCCCCCO is ___
Reply: 796.9

Task item: Fill in: mass density of CCCCO is ___
Reply: 778.7

Task item: Fill in: mass density of CCCCCCCO is ___
Reply: 793.7

----------
# condition description: 298.15 K; 45000 kPa; Liquid; Vibrating tube method
measure: mass density (kg/m3)
Give the value, in units of kg/m3, as a plain number.

CCCCCCCCO 846.9
CCCCCO 838.7
CCCCCCCCCCCO 851.8
CCCCO 835.4
CCCCCCCCCO 848.1
CCCO 830.9
CCO 819.2
CCCCCCCO 844.7

Task item: Fill in: mass density of CCCCCCO is ___
Reply: 842

Task item: Fill in: mass density of CCCCCCCCCCO is ___
Reply: 850

----------
# condition description: 318.15 K; 50000 kPa; Liquid; Vibrating tube method
measure: mass density (kg/m3)
Give the value, in units of kg/m3, as a plain number.

CCCCCCCCO 837.7
CCCCCO 829.1
CCCO 820.5
CCCCCCCO 835.4
CCO 808.3
CCCCCCCCCO 839.2

Task item: Fill in: mass density of CCCCCCCCCCO is ___
Reply: 841

Task item: Fill in: mass density of CCCCCCCCCCCO is ___
Reply: 842.6

Task item: Fill in: mass density of CCCCCCO is ___
Reply: 832.4

Task item: Fill in: mass density of CCCCO is ___
Reply: 825.3

----------
# condition description: 358.15 K; 45000 kPa; Liquid; Vibrating tube method
Quick reference: mass density of the listed items.
Give the value, in units of kg/m3, as a plain number.

molecule	value
CCCCO [butan-1-ol]	795.5
CCO [ethanol]	775.6
CCCCCCCO [heptan-1-ol]	808.1
CCCCCCCCCCO [decan-1-ol]	814.8
CCCCCO [pentan-1-ol]	800.5
CCCO [propan-1-ol]	789.3
CCCCCCO [hexan-1-ol]	804.6
CCCCCCCCCCCO [1-undecanol]	816.6
CCCCCCCCO [octan-1-ol]	810.8

Now let's try a different one.
Task item: Fill in: mass density of CCCCCCCCCO [nonan-1-ol] is ___
Reply: 812.8

----------
# condition description: 288.15 K; 100 kPa; Liquid; Vibrating tube method
measure: mass density (kg/m3)
Give the value, in units of kg/m3, as a plain number.

Here's what some known entries look like.
molecule	measure	value
CCCCCCO [hexan-1-ol]	mass density	822.1
CCO [ethanol]	mass density	793.4

Task item: Fill in: mass density of CCCCCO [pentan-1-ol] is ___
Reply: 818

Task item: Fill in: mass density of CCCCCCCCCO [nonan-1-ol] is ___
Reply: 829.9

Task item: Fill in: mass density of CCCCCCCO [heptan-1-ol] is ___
Reply: 825.5

Task item: Fill in: mass density of CCCCCCCCO [octan-1-ol] is ___
Reply: 828.4

Task item: Fill in: mass density of CCCCO [butan-1-ol] is ___
Reply: 813.5

Task item: Fill in: mass density of CCCCCCCCCCO [decan-1-ol] is ___
Reply: 832.3

Task item: Fill in: mass density of CCCO [propan-1-ol] is ___
Reply: 807.8
